Target: T1, recombinant human 4R0N tau (human, UniProt P10636 2-758)
T1 construct: also called recombinant 4R0N human tau; P10636-6
T1 sequence (P10636 other isoform, or with tags, fused parts or gaps limits assumed): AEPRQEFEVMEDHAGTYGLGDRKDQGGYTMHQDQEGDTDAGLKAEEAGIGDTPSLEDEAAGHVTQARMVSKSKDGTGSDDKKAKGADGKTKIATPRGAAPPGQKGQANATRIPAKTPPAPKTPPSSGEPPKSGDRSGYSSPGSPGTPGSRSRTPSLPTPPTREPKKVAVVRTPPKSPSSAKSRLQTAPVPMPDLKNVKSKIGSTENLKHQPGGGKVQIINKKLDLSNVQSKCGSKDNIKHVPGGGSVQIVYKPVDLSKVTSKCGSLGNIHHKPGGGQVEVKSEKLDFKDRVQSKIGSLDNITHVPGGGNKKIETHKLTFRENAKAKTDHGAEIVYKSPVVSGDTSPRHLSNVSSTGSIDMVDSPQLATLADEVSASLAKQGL
Experiment: SPR Biacore T200; antibody captured by anti-human Fc; tau as analyte; global 1:1 fit
parameter: koff

INSERT INTO measurements (binder, parameter, measured) VALUES
  ('hu9F5VHv9/hu9F5VLv8_DIM11 (antibody, V domains shown) VH: EVQLVQSGAEVKKPGATVKISCKASGFNIKDDYMNWVQQRPGKGLEWIGWIDPENGDTEYASKFQGRATMTADTSTNTAYMELSSLRSEDTAVYYCTTSNGWGQGTLVTVSS VL: DIQMTQSPFSLPVTPGESASISCRSSKSLGHSNGITYLYWYGQKPGQSPQLLIYQGSNRASGVPNRFSSSGSGTDFTLKISRVEAEDVGVYYCAQNIELPLTFGQGTKLEIK', 'koff', '0.00011 s⁻¹'),
  ('hu9F5VHv10/hu9F5VLv9_DIM19 (antibody, V domains shown) VH: EVQLVQSGAEVKKPGATVKISCKASGFNIKDDYMNWVKQRPEKGLEWIGWIDPENGDTEYASKFQGRATMTADTSTNTAYMELSSLRSEDTAVYYCTTSNGWGQGTLVTVSS VL: DIQMTQSPFSLPVTPGESASISCRSSKSLSHSNGITYLYWYIQKPGQSPQLLIYQISNRASGVPDRFSSSGSGTDFTLKISRVEAEDVGVYYCAQNIELPLTFGQGTKLEIK', 'koff', '0.00688 s⁻¹'),
  ('hu9F5VHv9/hu9F5VLv8_DIM23 (antibody, V domains shown) VH: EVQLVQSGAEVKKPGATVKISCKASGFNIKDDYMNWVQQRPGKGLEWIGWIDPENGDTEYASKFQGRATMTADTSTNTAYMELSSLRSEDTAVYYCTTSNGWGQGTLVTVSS VL: DIQMTQSPFSLPVTPGESASISCRSSKSLGHSNGITYLYWYQQKPGQSPQLLIYQESNGASGVPNRFSSSGSGTDFTLKISRVEAEDVGVYYCAQNIELPLTFGQGTKLEIK', 'koff', '0.0832 s⁻¹');

Origin of the recorded values: patent US20220275067A1
